procedure_text: Antiproliferative activity against growth of HaCaT cell was determined
Type: functional, cell-based
stated_conditions: Homo sapiens
measured_property: IC50

{"columns": ["smiles_data", "assay_result"],
 "data": [
  ["O=C1c2c(O)cccc2C(C(=O)c2ccccc2)c2cccc(O)c21", "> 5 µM"]
]}

input: # IC50 lookup, item `O=C1c2c(O)cccc2C(C(=O)c2cccs2)c2cccc(O)c21`
output: > 5 µM

input: Which IC50 is listed for `O=C1c2c(O)cccc2C(C(=O)c2ccsc2)c2cccc(O)c21` ?
output: > 5 µM
